- Measurement Protocol: NCI Yeast Anticancer Drug Screen. Data for the mlh1 rad18 strain (AID 175)
- Test Context: S. cerevisiae mlh1 rad18 strain growth inhibition; at 50.0 µM (retest, dose inferred, filed as 5.0); hits give high values
About 79,000 compounds went through this panel and 15% of them were active in at least one assay; those are over-represented in the sample as a whole.
growth inhibition values, listed per item
Measured Quantity: growth inhibition (%)

{"Molecule": "ClC(Cl)(Cl)C(c1ccccc1)c1ccccc1", "Result Unit": "%", "Observed Measurement": 15}
{"Molecule": "OC(CCN1CCCCC1)(Cc1ccccc1)c1cccc(Cl)c1 (centres undefined)", "Result Unit": "%", "Observed Measurement": 64}
{"Molecule": "ONC1=Nc2ccccc2OCc2cc(Br)c(Br)cc2COc2ccccc2N=C1NO", "Result Unit": "%", "Observed Measurement": 97}
{"Molecule": "COc1ccc(C2c3cc4c(cc3OC(N3CCOCC3)C2C)OCO4)c(OC)c1 (centres undefined)", "Result Unit": "%", "Observed Measurement": 96}
{"Molecule": "CCOc1c(N=Nc2ccc(Cl)cc2)c(-c2ccccc2)nn1C(N)=S", "Result Unit": "%", "Observed Measurement": 90}
{"Molecule": "O=C(c1ccccc1)c1ccc(O)cc1O", "Result Unit": "%", "Observed Measurement": 12}
{"Molecule": "OC1CCCCC1Cc1ccc(Cl)cc1 (centres undefined)", "Result Unit": "%", "Observed Measurement": 45}
{"Molecule": "Cc1ccc(C(=O)/C=C/c2ccco2)c(C)c1", "Result Unit": "%", "Observed Measurement": 61}
{"Molecule": "CC1(C)CCC2(CC1)CC(=O)OC(=O)C2", "Result Unit": "%", "Observed Measurement": -117}
{"Molecule": "Oc1ccc(C2CCCCC2)c(O)c1", "Result Unit": "%", "Observed Measurement": 72}
{"Molecule": "CN(C)c1cc(N(C)C)c2cc(-c3ccccc3)sc2n1", "Result Unit": "%", "Observed Measurement": 94}
{"Molecule": "COC(=O)/C=C1/OC(c2ccccc2)=C(Br)C1=O", "Result Unit": "%", "Observed Measurement": 15}
{"Molecule": "Clc1ccccc1NN(Cc1ccccn1)c1ccccc1Cl", "Result Unit": "%", "Observed Measurement": 59}
{"Molecule": "Cc1c(N)nc(C2CC(=O)N2CC(N)C(N)=O)nc1C(=O)NC(C(=O)NC(C)C(O)C(C)C(=O)NC(C(=O)NCCc1nc(-c2nc(C(=O)NCCNCC(C)O)cs2)cs1)C(C)O)C(OC1OC(CO)C(O)C(O)C1OC1OC(CO)C(O)C(OC(N)=O)C1O)c1cnc[nH]1 (centres undefined)", "Result Unit": "%", "Observed Measurement": 98}
{"Molecule": "CCCCCCCCCCCCSC1=C(N)C(=O)c2ccccc2C1=O", "Result Unit": "%", "Observed Measurement": 5}
{"Molecule": "OC(c1ccccc1)(C(F)(F)F)C(O)(c1ccccc1)C(F)(F)F (centres undefined)", "Result Unit": "%", "Observed Measurement": 99}
{"Molecule": "C1CCC(CC2CCC(NC3=NCCO3)CC2)CC1 (centres undefined)", "Result Unit": "%", "Observed Measurement": 99}
{"Molecule": "CCN(CC)Cc1cc(Nc2c3ccccc3nc3c4ccccc4n(C)c23)ccc1O", "Result Unit": "%", "Observed Measurement": 0}
{"Molecule": "CCCCCCCCCCCCCCC(C(=O)O)S(=O)(=O)O (centres undefined)", "Result Unit": "%", "Observed Measurement": 83}
{"Molecule": "OC(c1ccccc1)(c1ccccc1)c1ccc[cH-]1.OC(c1ccccc1)(c1ccccc1)c1ccc[cH-]1.[Fe+2]", "Result Unit": "%", "Observed Measurement": -3}
{"Molecule": "Cc1cc[c]([Sn]([Cl])([O][Sn]([Cl])([c]2ccc(C)cc2)[c]2ccc(C)cc2)[c]2ccc(C)cc2)cc1", "Result Unit": "%", "Observed Measurement": 54}
{"Molecule": "CCNC(=S)N/N=C/c1ccccn1", "Result Unit": "%", "Observed Measurement": 97}
{"Molecule": "Nc1nc(N)c(C(=O)SCc2ccccc2)nc1Cl", "Result Unit": "%", "Observed Measurement": 94}
{"Molecule": "C[N+]1(C)CCN(CCCN2c3ccccc3Sc3ccccc32)CC1", "Result Unit": "%", "Observed Measurement": 76}
{"Molecule": "COc1ccc(CCN2CC(=O)N3CSCC3C2=O)cc1OC (centres undefined)", "Result Unit": "%", "Observed Measurement": 14}
{"Molecule": "CC1(C)C=CC2=C(O1)C(=O)c1ccccc1C2=O", "Result Unit": "%", "Observed Measurement": 89}
{"Molecule": "COC1OC2COC(c3ccccc3)OC2C(NC(=S)SCc2ccccc2)C1O (centres undefined)", "Result Unit": "%", "Observed Measurement": 98}
{"Molecule": "O=C1C(=O)C(Cl)=C(Cl)C(Cl)=C1Cl", "Result Unit": "%", "Observed Measurement": 98}
{"Molecule": "O=C(N(c1ccc(Cl)cc1)c1ccc(Cl)cc1)C(Cl)(Cl)Cl", "Result Unit": "%", "Observed Measurement": 74}
{"Molecule": "CC(=O)N=C1N(/C=C2\\C(=O)Oc3ccccc3C2=O)C(=O)/C(=C/c2ccc(Cl)cc2Cl)N1C", "Result Unit": "%", "Observed Measurement": 91}
{"Molecule": "CCN(CC)C(C)(C)C(=O)/C=C/c1ccc(Cl)c(Cl)c1", "Result Unit": "%", "Observed Measurement": 95}
{"Molecule": "CCC12C=CCN3CC[C@@]4(c5cc([C@@]6(C(=O)OC)C[C@@H]7CN(CCc8c6[nH]c6ccccc86)C[C@](O)(CC)C7)c(OC)cc5N(C)[C@H]4[C@@](O)(C(=O)OC)[C@@H]1OC(=O)CCCCCCCCCCCN1C(=O)C=CC1=O)[C@H]32 (some centres undefined)", "Result Unit": "%", "Observed Measurement": 98}
{"Molecule": "N=C(N)c1ccc(Oc2ccc(Oc3ccc(C(=N)N)cc3)cc2)cc1", "Result Unit": "%", "Observed Measurement": 90}
{"Molecule": "COc1ccc(C(c2ccc(N(C)C)cc2)c2ccc(N(C)C)cc2)cc1", "Result Unit": "%", "Observed Measurement": 87}
{"Molecule": "CC[N+](C)(CC)CCC(=O)/C=C/c1ccccc1", "Result Unit": "%", "Observed Measurement": 46}
{"Molecule": "CC(=O)OC1=C(Br)CCc2ccccc21", "Result Unit": "%", "Observed Measurement": 99}
{"Molecule": "CCCC(=O)Oc1ccc(OCc2ccccc2)cc1", "Result Unit": "%", "Observed Measurement": 42}
{"Molecule": "C/C(=N\\NC(=S)N1CCC(O)CC1)c1ccccn1", "Result Unit": "%", "Observed Measurement": 98}
{"Molecule": "CCCCCCCC(=O)N1CCCCC1CC (centres undefined)", "Result Unit": "%", "Observed Measurement": -64}
{"Molecule": "CC[N+](CC)(CC)Cc1ccc(C[N+](CC)(CC)CC)cc1", "Result Unit": "%", "Observed Measurement": -4}
{"Molecule": "COc1ccc2c(c1)OC(OC)(c1ccccc1)C(O)(OC)C2=O (centres undefined)", "Result Unit": "%", "Observed Measurement": 33}
{"Molecule": "CN(C)C(=O)N(C)/N=C/c1ccc([N+](=O)[O-])o1", "Result Unit": "%", "Observed Measurement": 68}
{"Molecule": "CCOC(=O)/C(C#N)=C/c1ccccc1Br", "Result Unit": "%", "Observed Measurement": -4}
{"Molecule": "CCN(CC)c1ccc(Cl)c2c1C(O)(C(C)C)C2(C)C (centres undefined)", "Result Unit": "%", "Observed Measurement": 98}
